tested on: TO-N3 (biotin conjugate); assay: pull-down binding Z-score (relative to library population); higher = stronger binding; settings: RNA library: Library-2

| seq_string | measured_target | pull-down binding Z-score |
| --- | --- | --- |
| UGUAAAUAACUACAAUUCUCUUAACUCCGUAGCAGUUGC [hsa-mir-7844] | TO-N3 (biotin conjugate) | -0.11 |
| UUUGCCUAUAAAAGUAAUGGCAAA [hsa-mir-548an] | TO-N3 (biotin conjugate) | -0.512 |
| GGUGCUCCCAAGAGGGAAGCU [IAV_invivo_NP_5_Motif_18+IAV_invivo_NP_5_Motif_18] | TO-N3 (biotin conjugate) | 0.405 |
| GCAUCCAGACAGCGGGCGAAUGC [hsa-mir-6836] | TO-N3 (biotin conjugate) | 0.33 |
| CUGAGAGUGUCAUGGUGGAGCCUCCG [hsa-mir-4784] | TO-N3 (biotin conjugate) | 0.735 |
| CAGCUUGCUCUGCUUU [hsa-mir-4303] | TO-N3 (biotin conjugate) | -0.189 |
| UGUAUUUUUCAGCAAGGCAAGGGCUUUGAUGUCUUGUA [hsa-mir-8065] | TO-N3 (biotin conjugate) | -0.402 |
| GGUAGAGAUGAUUUUUCCUACU [hsa-mir-5003] | TO-N3 (biotin conjugate) | 1.78 |
| AAAUUGCCGAUAAGUAUGUCCGCAAUUU | TO-N3 (biotin conjugate) | -0.683 |
| UCUCUAAUGAGA | TO-N3 (biotin conjugate) | -1.38 |
| UAGAUGUUAUAAAAAUAUAUAUCUG [hsa-mir-4680] | TO-N3 (biotin conjugate) | -1.08 |
| GGGUGAUACACAAGCCUGACCCUCCC [hsa-mir-6793] | TO-N3 (biotin conjugate) | 0.416 |
| AUAUAACUUCUAAAGAAACUUUGUAU | TO-N3 (biotin conjugate) | -1.28 |
| UGCUUUUUGUUUCUAACAAAGCA [hsa-mir-4679-2] | TO-N3 (biotin conjugate) | 0.0252 |
| UGCUCAGUGGAGUUAUUUUGAGCA [hsa-mir-4495] | TO-N3 (biotin conjugate) | -1.42 |
| CUUGCGGGGCCUUCGCCGCACACAAG [hsa-mir-99b] | TO-N3 (biotin conjugate) | 0.328 |
| CACUGCAGUUACCCUCCCCUCGGCGUUACUGAGCACUG [hsa-mir-637] | TO-N3 (biotin conjugate) | 0.603 |
| UGGGAGGUAAGAGCUCUUCACCCUUCA [hsa-mir-197] | TO-N3 (biotin conjugate) | -0.119 |
| GCUUUCUUUGGC [IAV_invivo_NS1_NEP_8_Motif_2+IAV_invivo_NS1_NEP_8_Motif_2] | TO-N3 (biotin conjugate) | -0.43 |
| GGGGGCAGGCAGGGGAUUGGCUAAGAACCUGACUCUUGC [hsa-mir-7703] | TO-N3 (biotin conjugate) | 2.48 |
| CUUUAGUAAUUACCUAAAGAGACGUGUAGUCUUUAAUGGUGUUUCCUUUAG | TO-N3 (biotin conjugate) | -1.09 |
| GUGAUUACAUUAAAACUUAAAAUUUCAC [hsa-mir-4719] | TO-N3 (biotin conjugate) | -0.105 |
| CGCCAGCUCGCUGACAGCACGACUCAGGGCG [hsa-mir-658] | TO-N3 (biotin conjugate) | 0.25 |
| UGGUAUUCUUGCUA | TO-N3 (biotin conjugate) | -0.551 |
| UGUAUAGUAUUAUUCAAUACC [hsa-mir-1912] | TO-N3 (biotin conjugate) | -0.445 |
| UAAUCAGACAAGGAACUGAUUA | TO-N3 (biotin conjugate) | -0.836 |
| UCCCAUGAGGGG [IAV_invivo_HA_4_Motif_6+IAV_invivo_HA_4_Motif_6] | TO-N3 (biotin conjugate) | -1.28 |
| UUGUGAUGUUUACCGUUUAAAUCCACGG [hsa-mir-125b-1] | TO-N3 (biotin conjugate) | 0.107 |
| GGCGCUUCUCCUUCUGAACAGAGCGCU [hsa-mir-1251] | TO-N3 (biotin conjugate) | -0.423 |
| AAAUCCCGUUAAUAAGUAAGAGGAUUU [hsa-mir-2113] | TO-N3 (biotin conjugate) | 0.817 |
| UCCGAUUUACAGGA [DMSMaPseq_invitro_SARS-CoV-2_Motif_227] | TO-N3 (biotin conjugate) | -0.272 |
| CUACUCAAGGCUAG [hsa-mir-4266] | TO-N3 (biotin conjugate) | 1.35 |
| CAGAGGGGCUGGCAGUACUGCUCUG [hsa-mir-4649] | TO-N3 (biotin conjugate) | 1.08 |
| GCGCUGCCAGAAACUGGCUCAGCGC [bulge-UC] | TO-N3 (biotin conjugate) | -0.584 |
| AAGCAGGGUUGGGCCUGGUU [hsa-mir-7641-1] | TO-N3 (biotin conjugate) | -0.00685 |
